- Protocol notes: Tmax in Sprague-Dawley rat at 1 mg/kg, iv by LC-MS/MS analysis
- Assay type: ADME, organism-based
- Recorded conditions: in vivo
Value kind: Tmax (min)
Just the number in min, nothing appended.

**Q:** I am curious: what Tmax value has been reported for Cc1c(COc2cc(OCc3cccc(C#N)c3)c(CNC(C)(C)C(=O)O)cc2Cl)cccc1-c1ccccc1 ?
**A:** 4.98

###

- Test system: B16-F10
- Protocol notes: Cytotoxicity against mouse B16/F10 cells assessed as reduction in cell viability measured after 48 hrs by MTT assay
- Assay type: functional, cell-based
- Recorded conditions: B16-F10, 48 h
Value kind: IC50 (µM)
Just the number in µM, nothing appended.

Compound: Cc1c(COc2cc(OCc3cccc(C#N)c3)c(CN3C[C@@H](O)C[C@@H]3CO)cc2Cl)cccc1-c1ccc2c(c1)OCCO2
IC50 / µM: 2.4

**Q:** I am curious: what IC50 value has been reported for Cc1c(COc2cc(OCc3cccc(C#N)c3)c(CN3CCC(O)C3)cc2Cl)cccc1-c1ccc2c(c1)OCCO2 (stereo not given) ?
**A:** 2.3

**Q:** For Cc1c(COc2cc(OCc3cccc(C#N)c3)c(CN3CC[C@H](C(=O)O)C3)cc2Cl)cccc1-c1ccc2c(c1)OCCO2 then?
**A:** 10.8

###

- Protocol notes: Solubility of the compound in water
- Format: physicochemical
Value kind: solubility (µg/mL)
Just the number in µg/mL, nothing appended.

**Q:** I am curious: what solubility value has been reported for O=C(NC(Cc1cc(=O)[nH]c2ccccc12)C(=O)O)c1ccc(Cl)cc1 (stereo unspecified) [REBAMIPIDE] ?
**A:** 7.6

###

- Protocol notes: AUC (0 to infinity) in Sprague-Dawley rat at 1 mg/kg, iv by LC-MS/MS analysis
- Format: ADME, organism-based
- Set-up: dose 1 mg/kg, time infinity, route intravenous
- Recorded conditions: in vivo
Value kind: AUC(0-inf) (ng·h/mL)
Just the number in ng·h/mL, nothing appended.

**Q:** I am curious: what AUC(0-inf) value has been reported for Cc1c(COc2cc(OCc3cccc(C#N)c3)c(CNC(C)(C)C(=O)O)cc2Cl)cccc1-c1ccccc1 ?
**A:** 1050

###

- Target: Programmed cell death protein 1/Programmed cell death 1 ligand 1 (Homo sapiens)
- Protocol notes: Inhibition of human PD1/PDL1 protein-protein interaction by HTRF assay
- Assay type: protein-complex assay
pIC50: −log10 of the molar value.
Value kind: pIC50

**Q:** I am curious: what pIC50 value has been reported for Cc1c(COc2cc(OCc3cccc(C#N)c3)c(CN[C@H](CO)C(=O)O)cc2Cl)cccc1-c1ccncc1 ?
**A:** < 7.00

**Q:** For Cc1c(COc2ccc3cc(CNC(C)(C)C(=O)O)ccc3c2)cccc1-c1ccc2c(c1)OCCO2 then?
**A:** < 5.00

**Q:** For Cc1c(COc2cc(OCc3cccc(C#N)c3)c(CNCCN(C)C)cc2Cl)cccc1-c1ccc2c(c1)OCCO2 then?
**A:** 7.58

**Q:** For Cc1c(COc2cc(OCc3cccc(C#N)c3)c(CNCC(=O)O)cc2Cl)cccc1-c1ccccc1 then?
**A:** 7.00 to 8.00

###

- Protocol notes: AUC (0 to t) in Sprague-Dawley rat at 10 mg/kg, po by LC-MS/MS analysis
- Format: ADME, organism-based
- Recorded conditions: in vivo
Value kind: AUC(0-t) (ng·h/mL)
Just the number in ng·h/mL, nothing appended.

**Q:** I am curious: what AUC(0-t) value has been reported for Cc1c(COc2cc(OCc3cccc(C#N)c3)c(CNC(C)(C)C(=O)O)cc2Cl)cccc1-c1ccccc1 ?
**A:** 410

###

- Test system: MCF7
- Protocol notes: Cytotoxicity against human MCF7 cells assessed as reduction in cell viability measured after 48 hrs by MTT assay
- Type: functional, cell-based
- Recorded conditions: MCF7, 48 h
Value kind: IC50 (µM)
Just the number in µM, nothing appended.

**Q:** I am curious: what IC50 value has been reported for Cc1c(COc2cc(OCc3cccc(C#N)c3)c(CN3C[C@@H](O)C[C@@H]3CO)cc2Cl)cccc1-c1ccc2c(c1)OCCO2 ?
**A:** 6.6

**Q:** For Cc1c(COc2cc(OCc3cccc(C#N)c3)c(CN3CCC(O)C3)cc2Cl)cccc1-c1ccc2c(c1)OCCO2 (stereo not given) then?
**A:** 4.4

###

Listed here are molecules together with their documented IC50.
- Target: Programmed cell death protein 1/Programmed cell death 1 ligand 1 (Homo sapiens)
- Protocol notes: Inhibition of human PD1/PDL1 protein-protein interaction by HTRF assay
- Assay type: protein-complex assay

Molecule: Cc1c(-c2ccccc2)cccc1-c1cc(=O)c2cc(CN3CCNCC3)ccc2o1
IC50: > 10000 nM
--
Molecule: Cc1c(COc2cc(OCc3cccc(C#N)c3)c(CN3CCC(O)C3)cc2Cl)cccc1-c1ccc2c(c1)OCCO2 (configuration not stated)
IC50: 12.9 nM
--
Molecule: Cc1c(COc2cc(OCc3cccc(C#N)c3)c(CN3CCCC[C@@H]3C(=O)O)cc2Cl)cccc1-c1ccncc1
IC50: > 100 nM

**Q:** Observed IC50 on Programmed cell death protein 1/Programmed cell death 1 ligand 1 (Homo sapiens) for Cc1c(COc2cc(OCc3cccc(C#N)c3)c(CNCCN)cc2Cl)cccc1-c1ccc2c(c1)OCCO2 , please.
**A:** > 100 nM

**Q:** For Cc1c(COc2cc(OCc3cccc(C#N)c3)c(CN3CC(O)C3)cc2Cl)cccc1-c1ccccc1 then?
**A:** > 100 nM

###

- Protocol notes: Cmax in Sprague-Dawley rat at 10 mg/kg, po by LC-MS/MS analysis
- Assay type: ADME, organism-based
- Parameters: dose 10 mg/kg, route oral
- Recorded conditions: in vivo
Value kind: Cmax (ng/mL)
Just the number in ng/mL, nothing appended.

**Q:** I am curious: what Cmax value has been reported for Cc1c(COc2cc(OCc3cccc(C#N)c3)c(CNC(C)(C)C(=O)O)cc2Cl)cccc1-c1ccccc1 ?
**A:** 69.5

###

- Protocol notes: Clearance in Sprague-Dawley rat at 1 mg/kg, iv by LC-MS/MS analysis
- Format: ADME, organism-based
- Recorded conditions: in vivo
Value kind: clearance (L/h/kg)
Just the number in L/h/kg, nothing appended.

**Q:** I am curious: what clearance value has been reported for Cc1c(COc2cc(OCc3cccc(C#N)c3)c(CNC(C)(C)C(=O)O)cc2Cl)cccc1-c1ccccc1 ?
**A:** 0.9

###

- Target: Programmed cell death protein 1/Programmed cell death 1 ligand 1 (Homo sapiens)
- Protocol notes: Inhibition of human PD1/PDL1 protein-protein interaction by HTRF assay
- Type: protein-complex assay
Value kind: IC50 (nM)
Just the number in nM, nothing appended.

**Q:** I am curious: what IC50 value has been reported for Cc1c(COc2cc(OCc3cccc(C#N)c3)c(CN3CC(C(=O)O)C3)cc2Cl)cccc1-c1ccc2c(c1)OCCO2 ?
**A:** 14.5

**Q:** For COc1cc2c(c(O)c1CC=C(C)C)C(=O)C[C@@H](c1ccc(O)cc1)O2 then?
**A:** 96600

**Q:** For CC(=O)NCCNCc1ccc(O)c(C(=O)/C=C/c2cccc(-c3ccccc3)c2C)c1 then?
**A:** 5300

**Q:** For Cc1c(COc2cc(OCc3cccc(C#N)c3)c(CN[C@H](C(=O)O)[C@H](C)O)cc2Cl)cccc1-c1ccccc1 then?
**A:** 14.1

###

- Target: Programmed cell death protein 1/Programmed cell death 1 ligand 1 (Homo sapiens, UniProt Q9NZQ7)
- Sequence (Q15116 whole entry): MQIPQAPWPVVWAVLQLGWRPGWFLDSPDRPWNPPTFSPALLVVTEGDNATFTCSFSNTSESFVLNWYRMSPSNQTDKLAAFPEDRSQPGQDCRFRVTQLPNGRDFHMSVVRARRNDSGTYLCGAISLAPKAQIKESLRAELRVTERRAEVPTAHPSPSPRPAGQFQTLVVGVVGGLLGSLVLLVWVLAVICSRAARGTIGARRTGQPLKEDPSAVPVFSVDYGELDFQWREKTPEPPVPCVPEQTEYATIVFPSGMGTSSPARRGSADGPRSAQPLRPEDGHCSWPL
- Sequence (Q9NZQ7 whole entry): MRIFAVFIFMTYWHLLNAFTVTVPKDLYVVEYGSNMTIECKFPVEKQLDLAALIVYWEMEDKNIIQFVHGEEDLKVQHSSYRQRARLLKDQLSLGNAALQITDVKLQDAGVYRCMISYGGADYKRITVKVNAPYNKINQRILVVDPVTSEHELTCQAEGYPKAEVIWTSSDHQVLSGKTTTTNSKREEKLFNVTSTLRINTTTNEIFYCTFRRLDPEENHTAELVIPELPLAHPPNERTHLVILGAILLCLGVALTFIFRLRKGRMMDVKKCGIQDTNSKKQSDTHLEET
- Protocol notes: Inhibition of human PD1/PDL1 protein-protein interaction in human PBMC-derived CD3-positive T cells co-cultured with human Hep3B cells expressing human PDL1/OS-8 assessed as increase in IFNgamma secretion measured after 72 hrs by ELISA
Value kind: EC50 (µM)
Just the number in µM, nothing appended.

**Q:** I am curious: what EC50 value has been reported for Cc1c(COc2cc(OCc3cccc(C#N)c3)c(CNC(C)(C)C(=O)O)cc2Cl)cccc1-c1ccccc1 ?
**A:** 3

###

- Protocol notes: Half life in Sprague-Dawley rat at 1 mg/kg, iv by LC-MS/MS analysis
- Type: ADME, organism-based
- Recorded conditions: in vivo
Value kind: half-life (h)
Just the number in h, nothing appended.

**Q:** I am curious: what half-life value has been reported for Cc1c(COc2cc(OCc3cccc(C#N)c3)c(CNC(C)(C)C(=O)O)cc2Cl)cccc1-c1ccccc1 ?
**A:** 1.5

###

- Protocol notes: AUC (0 to infinity) in Sprague-Dawley rat at 10 mg/kg, po by LC-MS/MS analysis
- Format: ADME, organism-based
- Design: dose 10 mg/kg, time infinity, route oral
- Recorded conditions: in vivo
Value kind: AUC(0-inf)
Answer format reminder: number followed by unit.

**Q:** I am curious: what AUC(0-inf) value has been reported for Cc1c(COc2cc(OCc3cccc(C#N)c3)c(CNC(C)(C)C(=O)O)cc2Cl)cccc1-c1ccccc1 ?
**A:** 520 ng·h/mL

Reference for the values: ChEMBL document CHEMBL4619786
